# Tested on: Corynebacterium minutissimum
# EXPERIMENTAL_DETAILS: Antibacterial activity against Corynebacterium minutissimum after 48 hrs by broth microdilution method
# Assay type: functional
Entries and their MIC values follow.
Reply with just the number (in µg/mL).

Solved cases (3 shown):
>  <MOLECULE>
CN(C)[C@@H]1C(O)=C(C(N)=O)C(=O)[C@@]2(O)C(O)=C3C(=O)c4c(O)cccc4[C@@](C)(O)[C@H]3C[C@@H]12 [TETRACYCLINE]

>  <READING_UNIT>
µg/mL

>  <MIC>
5.16

$$$$
>  <MOLECULE>
CC[C@H]1OC(=O)[C@H](C)[C@@H](O[C@H]2C[C@@](C)(OC)[C@@H](O)[C@H](C)O2)[C@H](C)[C@@H](O[C@@H]2O[C@H](C)C[C@H](N(C)C)[C@H]2O)[C@](C)(O)C[C@@H](C)C(=O)[C@H](C)[C@@H](O)[C@]1(C)O [ERYTHROMYCIN]

>  <READING_UNIT>
µg/mL

>  <MIC>
1.47

$$$$
>  <MOLECULE>
CC[C@H]1OC(=O)[C@H](C)[C@@H](O[C@H]2C[C@@](C)(OC)[C@@H](O)[C@H](C)O2)[C@H](C)[C@@H](O[C@@H]2O[C@H](C)C[C@H](N(C)C)[C@H]2O)[C@](C)(OC)C[C@@H](C)C(=O)[C@H](C)[C@H]2[C@H](SCCn3cnc4cccnc43)C(=O)O[C@@]21C

>  <READING_UNIT>
µg/mL

>  <MIC>
0.88

$$$$

Incoming: Return value of MIC for input CCC[C@@H]1C[C@@H](C(=O)N[C@@H]([C@H]2O[C@H](SC)[C@H](O)[C@@H](O)[C@H]2O)[C@H](C)Cl)N(C)C1 [CLINDAMYCIN] , no commentary.
Outgoing: 7.97
